- Protocol summary: Example 1: ocular tissue pharmacokinetics after topical dose, increasing dose volume at constant drug concentration
- Type: in vivo, pigmented male rabbits (Dutch Belted)
- Test settings: male, Dutch Belted, rabbit, topical or ocular, 10 ug; Tear; 100 μL of 0.1 mg/mL suspension (10 μg), topical ocular
Measured metric: Cmax (ng/g)
Give bare numbers, in ng/g.

Sure, the documented Cmax for Cc1ccc2c(NCC(O)(CC(C)(C)c3cc(F)cc4c3OCC4)C(F)(F)F)cccc2n1 (stereo not shown) is 36700

---

- Protocol summary: Example 1: ocular tissue pharmacokinetics after topical dose, increasing dose volume at constant drug concentration
- Assay type: in vivo, pigmented male rabbits (Dutch Belted)
- Test settings: male, Dutch Belted, rabbit, topical or ocular, 10 ug; Tear; 100 μL of 0.1 mg/mL suspension (10 μg), topical ocular
Measured metric: Tmax

Sure, the documented Tmax for Cc1ccc2c(NCC(O)(CC(C)(C)c3cc(F)cc4c3OCC4)C(F)(F)F)cccc2n1 (stereo not shown) is 15 min

Where these numbers come from: patent US20130177609A1
